- Test system: Streptococcus salivarius
- assayNotes: growth AUC relative to DMSO control (median of replicates) (fraction); higher = more growth (less inhibition), active = hit call of the paper
- measurementContext: 20 µM; 24 h
measure: growth AUC
Give bare numbers.

Some entries whose results are on file:
{"compound": "O=C(Nc1ccc(F)cc1)c1cccc(Oc2cccc(C(F)(F)F)c2)n1", "growth AUC": 0.956}
{"compound": "CCCCCCCC/C=C\\CCCCCCCCCCCC(=O)O", "growth AUC": 0.898}
{"compound": "CCc1cccc(C)c1NC(=O)CS(=O)(=O)[O-].[Na+]", "growth AUC": 1.01}
{"compound": "CCOCOc1ccc(C(=O)Nc2cccc(Cl)c2Cl)cc1", "growth AUC": 0.989}
{"compound": "Cc1[nH]n(C)c(=O)c1C(=O)c1ccc(C(F)(F)F)cc1S(C)(=O)=O", "growth AUC": 1.03}

Lab note: each compound below needs its growth AUC filled in.
1. N[C@@H](Cc1cc(I)c(Oc2cc(I)c(O)c(I)c2)c(I)c1)C(=O)O
2. CCSC(=O)N(CC(C)C)CC(C)C

0.923
0.997
